- Tested on: Aspergillus fumigatus
- Procedure Details: Antifungal activity against Aspergillus fumigatus DSM 15966 assessed as growth inhibition after 24 to 48 hrs
- Type: functional
Calls of active or inactive are those of the source. No cut-off for these calls is given here.

| Smi | Experimental System | MIC |
| --- | --- | --- |
| C[C@@H]1[C@H](O)[C@@H](C)/C=C/C=C/C=C/C=C/C=C/C=C/C=C/[C@H](O[C@@H]2O[C@H](C)[C@@H](O)[C@H](N)[C@@H]2O)C[C@@H]2O[C@](O)(C[C@@H](O)C[C@@H](O)[C@H](O)CC[C@@H](O)C[C@@H](O)CC(=O)O[C@H]1C)C[C@H](O)[C@H]2C(=O)O | Aspergillus fumigatus | < 0.52 µg/mL |
| COC1=CC(=O)O[C@H](c2coc(/C(=C/c3ccc(Cl)[nH]3)CO)n2)[C@@H]1C | Aspergillus fumigatus | inactive |
| Oc1cccc2nc3c(O)cccc3nc12 | Aspergillus fumigatus | inactive |
| OC[C@H]1O[C@H](Oc2cccc3nc4c(O)cccc4nc23)[C@@H](O)[C@@H]1O | Aspergillus fumigatus | 33.3 µg/mL |
